Hello, the source for this data is patent US12721844B2, in case you need it.

system: Salmonella typhimurium TA1535; assay: Ames test (reverse mutation test), TA1535; type: cell-based; details: with S9 mix; dose 556 μg/plate
Property measured: Number of revertant colonies TA1535

Task: Please respond with reported Number of revertant colonies TA1535 (system Salmonella typhimurium TA1535) for Nc1cc(-c2cc(F)cc(OC(F)(F)F)c2)n(-c2cncc(F)c2)n1 [Metabolite 3] .
Output: 4

Task: Under Salmonella typhimurium TA1535, report Number of revertant colonies TA1535 for CC(C)(C)Oc1cccc(-c2cc(N)nn2-c2ccccc2)c1 [Metabolite C]
Output: 4

Task: Give Number of revertant colonies TA1535 only, for CC(C)(C)Oc1cc(F)cc(-c2cc(N)nn2C(F)(F)F)c1 [Metabolite 1] , using Salmonella typhimurium TA1535 data.
Output: 4

Task: Specify Number of revertant colonies TA1535 for Nc1cc(-c2cc(F)cc(OC(F)(F)F)c2)n(-c2cncc(C(F)(F)F)c2)n1 [Metabolite 5] , system Salmonella typhimurium TA1535.
Output: 7
